Entries below carry reported IC50 on West Nile Virus (WNV) NS2B-NS3 protease (West Nile virus).
Sequence (Q9Q6P4 1423-1470): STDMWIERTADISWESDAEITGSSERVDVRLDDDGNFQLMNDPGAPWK
Sequence (Q9Q6P4 1506-1689): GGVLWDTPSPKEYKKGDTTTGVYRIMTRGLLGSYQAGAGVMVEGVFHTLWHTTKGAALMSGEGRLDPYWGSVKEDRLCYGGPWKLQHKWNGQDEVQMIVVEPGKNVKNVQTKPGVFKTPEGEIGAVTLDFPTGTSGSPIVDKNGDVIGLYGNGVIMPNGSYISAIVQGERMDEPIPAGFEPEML

Study these solved cases before continuing.
[
  {
    "Compound": "CN(C)C[C@H]1CC[C@H]([n+]2cc([N-]C(=O)Nc3cc(NC(=O)Cc4c(F)cccc4Cl)cc(C(F)(F)F)c3)on2)CC1 [Example 198]",
    "Assay Value": "1000 to 20000 nM"
  },
  {
    "Compound": "CN(C)C[C@H]1CC[C@H]([n+]2cc([N-]C(=O)Nc3cc(NC(=O)C4Cc5ccccc54)cc(C(F)(F)F)c3)on2)CC1 (some centres unmarked) [Example 195]",
    "Assay Value": "1000 to 20000 nM"
  },
  {
    "Compound": "CN(C)C[C@H]1CC[C@H]([n+]2cc([N-]C(=O)Nc3cc(NC(=O)C(C)(C)c4ccccc4)cc(C(F)(F)F)c3)on2)CC1 [Example 208]",
    "Assay Value": "100 to 1000 nM"
  }
]

// lookup IC50 for Cc1cnn(C)c1-c1ccc(C[n+]2cc([N-]C(=O)Nc3ccc(C#N)c(C(F)(F)F)c3)on2)cc1 [Example 238] 100 to 1000 nM

// lookup IC50 for CN(C)C[C@H]1CC[C@H]([n+]2cc([N-]C(=O)Nc3cc(NC(=O)Cc4c(F)cccc4F)cc(C(F)(F)F)c3)on2)CC1 [Example 199] 100 to 1000 nM

// lookup IC50 for CN(C)C[C@H]1CC[C@H]([n+]2cc([N-]C(=O)Nc3cc(N(C)C(=O)Cc4ccccc4)cc(C(F)(F)F)c3)on2)CC1 [Example 172] 100 to 1000 nM

// lookup IC50 for Cc1ncncc1-c1ccc(C[n+]2cc([N-]C(=O)Nc3ccnc(C(F)(F)F)c3)on2)cc1 [Example 225] 100 to 1000 nM
